# experimental-system: hPPARγ (Homo sapiens, UniProt P37231)
# Construct: corresponding to the DEF domains (structural elements of the promoter of the PPARs: D=hinge, EF=ligand fixation domain and AF2 fixation site)
# Sequence (P37231 238-503 limits assumed): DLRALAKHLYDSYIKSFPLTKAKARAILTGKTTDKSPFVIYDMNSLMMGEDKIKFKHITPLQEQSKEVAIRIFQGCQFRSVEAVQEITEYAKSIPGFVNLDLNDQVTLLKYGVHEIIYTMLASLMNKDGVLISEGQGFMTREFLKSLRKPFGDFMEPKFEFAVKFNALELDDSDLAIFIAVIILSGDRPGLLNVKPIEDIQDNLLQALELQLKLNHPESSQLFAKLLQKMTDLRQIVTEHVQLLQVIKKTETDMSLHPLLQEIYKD
# method-notes: Gal4-hPPARγ chimera transactivation (luciferase) in COS-7 cells
# experimental-context: luciferase, 24 hours, read-out: PPARγ EC50
Our labelling divides records by EC50 into ranges: low interval: < 6 µM; middle interval: ≥ 6 µM and < 20 µM; high interval: ≥ 20 µM

input_smiles=CC(C)(C)Oc1nc(-c2ccccc2)ccc1COc1ccc(OCC(=O)O)cc1 group_label="high interval"
input_smiles=CC(C)(C)Oc1nc(-c2ccccc2)ccc1COc1ccc(OC(C)(C)C(=O)O)cc1 group_label="middle interval"
input_smiles=CC(C)(C)Oc1nc(-c2ccccc2)ccc1CNc1ccc(OCC(=O)O)cc1 group_label="middle interval"

*Q* Looking at `O=C(O)COc1ccc(OCc2ccc(-c3ccccc3)nc2N2CCCCC2)cc1` , which class would you pick?
*A* high interval

*Q* Note: place this molecule into its band. Item: `CCCCCCOc1nc(-c2ccccc2)ccc1COc1ccc(OCC(=O)O)cc1`
*A* middle interval

*Q* Class? Entry: `COc1nc(-c2ccccc2)ccc1CNc1cccc(OCC(=O)O)c1`
*A* high interval

*Q* Exercise: read the entry `COc1cc(NCc2ccc(-c3ccccc3)nc2OC)ccc1CCC(=O)O` and state which class it falls under.
*A* low interval

*Q* Sort `COc1nc(-c2ccccc2)ccc1CNc1ccc(OC(C)(C)C(=O)O)cc1` into one of the categories.
*A* low interval
